Recorded inhibition, one value per entry.
species: Homo sapiens; assay: Displacement of F-NEO from human mitochondrial rRNA-A site C1410U mutant after 10 to 20 mins by fluorescence assay relative to NEO; design: concentration or dose not given beside the values
Give the value, in units of %, as a plain number.

Use these answered entries as a reference point.
smiles text | inhibition (%)
NC[C@@H]1O[C@H](O[C@H]2[C@@H](O)[C@H](O[C@@H]3[C@@H](O)[C@H](N)C[C@H](N)[C@H]3O[C@H]3O[C@H](CN)[C@@H](O)[C@H](O)[C@H]3N)O[C@@H]2CNC(=O)Cc2ccc3ccc4cccc5ccc2c3c45)[C@H](N)[C@@H](O)[C@@H]1O | 73
NC[C@@H]1O[C@H](O[C@H]2[C@@H](O)[C@H](O[C@@H]3[C@@H](O)[C@H](N)C[C@H](N)[C@H]3O[C@H]3O[C@H](CN)[C@@H](O)[C@H](O)[C@H]3N)O[C@@H]2CNC(=O)CCc2ccc3ccc4cccc5ccc2c3c45)[C@H](N)[C@@H](O)[C@@H]1O | 65

Turning now to a further record.
// query Find the recorded inhibition belonging to "NC[C@@H]1O[C@H](O[C@H]2[C@@H](O)[C@H](O[C@@H]3[C@@H](O)[C@H](N)C[C@H](N)[C@H]3O[C@H]3O[C@H](CN)[C@@H](O)[C@H](O)[C@H]3N)O[C@@H]2CSCCNC(=O)CCc2ccc3ccc4cccc5ccc2c3c45)[C@H](N)[C@@H](O)[C@@H]1O" and report it.
// result 86

* * *

test system: Staphylococcus aureus; assay: Antibacterial activity against NEO-sensitive Staphylococcus aureus NRS77 after 15 to 20 hrs by CLSI protocol based microdilution assay; type: functional
measurement type: MIC (µM)
Give the value, in units of µM, as a plain number.

Use these answered entries as a reference point.
compound | recorded measurement
NC[C@@H]1O[C@H](O[C@H]2[C@@H](O)[C@H](O[C@@H]3[C@@H](O)[C@H](N)C[C@H](N)[C@H]3O[C@H]3O[C@H](CN)[C@@H](O)[C@H](O)[C@H]3N)O[C@@H]2CSCCNC(=O)Cc2ccc3ccc4cccc5ccc2c3c45)[C@H](N)[C@@H](O)[C@@H]1O | 3.2
NC[C@@H]1O[C@H](O[C@H]2[C@@H](O)[C@H](O[C@@H]3[C@@H](O)[C@H](N)C[C@H](N)[C@H]3O[C@H]3O[C@H](CN)[C@@H](O)[C@H](O)[C@H]3N)O[C@@H]2CSCCNC(=O)CCc2ccc3ccc4cccc5ccc2c3c45)[C@H](N)[C@@H](O)[C@@H]1O | 6.3

Turning now to a further record.
// query Find the recorded MIC belonging to NC[C@@H]1O[C@H](O[C@H]2[C@@H](O)[C@H](O[C@@H]3[C@@H](O)[C@H](N)C[C@H](N)[C@H]3O[C@H]3O[C@H](CN)[C@@H](O)[C@H](O)[C@H]3N)O[C@@H]2CO)[C@H](N)[C@@H](O)[C@@H]1O [FRAMYCETIN] and report it.
// result 1.6

* * *

system: Staphylococcus aureus; assay: Antibacterial activity against methicillin-resistant Staphylococcus aureus M0602 at 6.25 uM after 15 to 20 hrs by CLSI protocol based microdilution assay relative to control; type: functional
Active and inactive are the calls of the source. The rule behind the calls is not given here.

smiles text | Activity
NC[C@@H]1O[C@H](O[C@H]2[C@@H](O)[C@H](O[C@@H]3[C@@H](O)[C@H](N)C[C@H](N)[C@H]3O[C@H]3O[C@H](CN)[C@@H](O)[C@H](O)[C@H]3N)O[C@@H]2CNC(=O)Cc2ccc3ccc4cccc5ccc2c3c45)[C@H](N)[C@@H](O)[C@@H]1O | inactive
NC[C@@H]1O[C@H](O[C@H]2[C@@H](O)[C@H](O[C@@H]3[C@@H](O)[C@H](N)C[C@H](N)[C@H]3O[C@H]3O[C@H](CN)[C@@H](O)[C@H](O)[C@H]3N)O[C@@H]2CSCCNC(=O)Cc2ccc3ccc4cccc5ccc2c3c45)[C@H](N)[C@@H](O)[C@@H]1O | 32%
NC[C@@H]1O[C@H](O[C@H]2[C@@H](O)[C@H](O[C@@H]3[C@@H](O)[C@H](N)C[C@H](N)[C@H]3O[C@H]3O[C@H](CN)[C@@H](O)[C@H](O)[C@H]3N)O[C@@H]2CNC(=O)CCCc2ccc3ccc4cccc5ccc2c3c45)[C@H](N)[C@@H](O)[C@@H]1O | 19%
NC[C@@H]1O[C@H](O[C@H]2[C@@H](O)[C@H](O[C@@H]3[C@@H](O)[C@H](N)C[C@H](N)[C@H]3O[C@H]3O[C@H](CN)[C@@H](O)[C@H](O)[C@H]3N)O[C@@H]2CNC(=O)CCc2ccc3ccc4cccc5ccc2c3c45)[C@H](N)[C@@H](O)[C@@H]1O | inactive

* * *

experiment: Inhibition of Eis (unknown origin)
Activity calls are given as the source filed them. No cut-off for these calls is given here.
Tick one outcome: 1 (active), -1 (inactive)

smiles text | category
NC[C@@H]1O[C@H](O[C@H]2[C@@H](O)[C@H](O[C@@H]3[C@@H](O)[C@H](N)C[C@H](N)[C@H]3O[C@H]3O[C@H](CN)[C@@H](O)[C@H](O)[C@H]3N)O[C@@H]2CNC(=O)Cc2ccc3ccc4cccc5ccc2c3c45)[C@H](N)[C@@H](O)[C@@H]1O | 1
NC[C@@H]1O[C@H](O[C@H]2[C@@H](O)[C@H](O[C@@H]3[C@@H](O)[C@H](N)C[C@H](N)[C@H]3O[C@H]3O[C@H](CN)[C@@H](O)[C@H](O)[C@H]3N)O[C@@H]2CSCCNC(=O)CCCc2ccc3ccc4cccc5ccc2c3c45)[C@H](N)[C@@H](O)[C@@H]1O | -1

Okay, next one:
// query Which outcome was assigned to "NC[C@@H]1O[C@H](O[C@H]2[C@@H](O)[C@H](O[C@@H]3[C@@H](O)[C@H](N)C[C@H](N)[C@H]3O[C@H]3O[C@H](CN)[C@@H](O)[C@H](O)[C@H]3N)O[C@@H]2CNC(=O)CCc2ccc3ccc4cccc5ccc2c3c45)[C@H](N)[C@@H](O)[C@@H]1O" in this test?
// result 1

* * *

assay: Inhibition of AAC(2')-1c (unknown origin)
Active and inactive are the calls of the source. No cut-off for these calls is given here.
Tick one outcome: active, inactive

smiles text | category
NC[C@@H]1O[C@H](O[C@H]2[C@@H](O)[C@H](O[C@@H]3[C@@H](O)[C@H](N)C[C@H](N)[C@H]3O[C@H]3O[C@H](CN)[C@@H](O)[C@H](O)[C@H]3N)O[C@@H]2CSCCNC(=O)CCCc2ccc3ccc4cccc5ccc2c3c45)[C@H](N)[C@@H](O)[C@@H]1O | inactive
NC[C@@H]1O[C@H](O[C@H]2[C@@H](O)[C@H](O[C@@H]3[C@@H](O)[C@H](N)C[C@H](N)[C@H]3O[C@H]3O[C@H](CN)[C@@H](O)[C@H](O)[C@H]3N)O[C@@H]2CNC(=O)CCCc2ccc3ccc4cccc5ccc2c3c45)[C@H](N)[C@@H](O)[C@@H]1O | active
NC[C@@H]1O[C@H](O[C@H]2[C@@H](O)[C@H](O[C@@H]3[C@@H](O)[C@H](N)C[C@H](N)[C@H]3O[C@H]3O[C@H](CN)[C@@H](O)[C@H](O)[C@H]3N)O[C@@H]2CSCCNC(=S)NCCCCCCNC(=O)CCCc2ccc3ccc4cccc5ccc2c3c45)[C@H](N)[C@@H](O)[C@@H]1O | active
NC[C@@H]1O[C@H](O[C@H]2[C@@H](O)[C@H](O[C@@H]3[C@@H](O)[C@H](N)C[C@H](N)[C@H]3O[C@H]3O[C@H](CN)[C@@H](O)[C@H](O)[C@H]3N)O[C@@H]2CNC(=O)CCc2ccc3ccc4cccc5ccc2c3c45)[C@H](N)[C@@H](O)[C@@H]1O | active
NC[C@@H]1O[C@H](O[C@H]2[C@@H](O)[C@H](O[C@@H]3[C@@H](O)[C@H](N)C[C@H](N)[C@H]3O[C@H]3O[C@H](CN)[C@@H](O)[C@H](O)[C@H]3N)O[C@@H]2CSCCNC(=O)CCc2ccc3ccc4cccc5ccc2c3c45)[C@H](N)[C@@H](O)[C@@H]1O | active

// query Which outcome was assigned to "NC[C@@H]1O[C@H](O[C@H]2[C@@H](O)[C@H](O[C@@H]3[C@@H](O)[C@H](N)C[C@H](N)[C@H]3O[C@H]3O[C@H](CN)[C@@H](O)[C@H](O)[C@H]3N)O[C@@H]2CNC(=O)Cc2ccc3ccc4cccc5ccc2c3c45)[C@H](N)[C@@H](O)[C@@H]1O" in this test?
// result active

// query Which outcome was assigned to "NC[C@@H]1O[C@H](O[C@H]2[C@@H](O)[C@H](O[C@@H]3[C@@H](O)[C@H](N)C[C@H](N)[C@H]3O[C@H]3O[C@H](CN)[C@@H](O)[C@H](O)[C@H]3N)O[C@@H]2CSCCNC(=O)Cc2ccc3ccc4cccc5ccc2c3c45)[C@H](N)[C@@H](O)[C@@H]1O" in this test?
// result active
